src = the supplement of paper PMC12855868

B1: library; numbered along this chain (parent)
chain: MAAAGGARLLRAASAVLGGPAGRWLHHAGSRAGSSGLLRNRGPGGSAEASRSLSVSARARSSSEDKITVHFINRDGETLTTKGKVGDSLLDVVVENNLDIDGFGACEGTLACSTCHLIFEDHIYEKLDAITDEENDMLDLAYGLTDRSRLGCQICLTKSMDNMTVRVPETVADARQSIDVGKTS

Variants of: B1
Assay: scaled log2 fold change in cell abundance, elesclomol vs control (0 = silent mean, 1 = nonsense mean) (scaled log2 ratio); higher = higher viability under elesclomol (loss of FDX1 cuproptosis function);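 note: variant abundance is its share of total variant reads in each endpoint sample, from next-generation sequencing of the integrated ORF PCR-amplified out of genomic DNA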
Conditions: with ABC1 FDX1 KO; elesclomol 5 nM; glucose 10 mM; 14 days
I'd be grateful if you could share measured scaled log2 fold change for these entries.
Quick one: just the number, no unit, thanks!

# input Please supply the value of reported scaled log2 fold change for the item C155P
# output 0.0631

# input Please supply the value of reported scaled log2 fold change for the item G45C
# output 0.409

# input Please supply the value of reported scaled log2 fold change for the item V171P
# output 0.142

# input Please supply the value of reported scaled log2 fold change for the item L98N
# output 0.309

# input Please supply the value of reported scaled log2 fold change for the item R166I
# output -0.0924

# input Please supply the value of reported scaled log2 fold change for the item R8A
# output 0.393

# input Please supply the value of reported scaled log2 fold change for the item V16S
# output 0.228

# input Please supply the value of reported scaled log2 fold change for the item P168H
# output 0.377

# input Please supply the value of reported scaled log2 fold change for the item N135M
# output -0.00864

# input Please supply the value of reported scaled log2 fold change for the item S113V
# output 0.242

# input Please supply the value of reported scaled log2 fold change for the item A2D
# output 0.173

# input Please supply the value of reported scaled log2 fold change for the item N73E
# output 0.311

# input Please supply the value of reported scaled log2 fold change for the item G45K
# output 0.0509

# input Please supply the value of reported scaled log2 fold change for the item H26Q
# output 0.0786

# input Please supply the value of reported scaled log2 fold change for the item Q176E
# output 0.157

# input Please supply the value of reported scaled log2 fold change for the item T157R
# output 0.294

# input Please supply the value of reported scaled log2 fold change for the item S50H
# output 0.126

# input Please supply the value of reported scaled log2 fold change for the item M160K
# output -0.0408

# input Please supply the value of reported scaled log2 fold change for the item I67K
# output 0.691

# input Please supply the value of reported scaled log2 fold change for the item G5H
# output 0.507

# input Please supply the value of reported scaled log2 fold change for the item I100Y
# output 0.0992

# input Please supply the value of reported scaled log2 fold change for the item A7Y
# output 0.0823

# input Please supply the value of reported scaled log2 fold change for the item K182I
# output 0.114

# input Please supply the value of reported scaled log2 fold change for the item D173E
# output 0.188

# input Please supply the value of reported scaled log2 fold change for the item L90Y
# output -0.103

# input Please supply the value of reported scaled log2 fold change for the item E95T
# output -0.37

# input Please supply the value of reported scaled log2 fold change for the item F119G
# output 1.05

# input Please supply the value of reported scaled log2 fold change for the item S34K
# output 0.146

# input Please supply the value of reported scaled log2 fold change for the item D91V
# output -0.017

# input Please supply the value of reported scaled log2 fold change for the item M137L
# output 0.182

# input Please supply the value of reported scaled log2 fold change for the item R11N
# output 0.137

# input Please supply the value of reported scaled log2 fold change for the item L25N
# output -0.498

# input Please supply the value of reported scaled log2 fold change for the item A15N
# output -0.0399

# input Please supply the value of reported scaled log2 fold change for the item D139R
# output 0.938

# input Please supply the value of reported scaled log2 fold change for the item S56G
# output -1.11

# input Please supply the value of reported scaled log2 fold change for the item L25Y
# output 0.423

# input Please supply the value of reported scaled log2 fold change for the item E107Y
# output 0.333

# input Please supply the value of reported scaled log2 fold change for the item E95N
# output 0.2

# input Please supply the value of reported scaled log2 fold change for the item L140C
# output -0.0723

# input Please supply the value of reported scaled log2 fold change for the item R175K
# output 0.138

# input Please supply the value of reported scaled log2 fold change for the item H26A
# output 0.684

# input Please supply the value of reported scaled log2 fold change for the item L38V
# output -0.109

# input Please supply the value of reported scaled log2 fold change for the item D136S
# output 0.133

# input Please supply the value of reported scaled log2 fold change for the item M137W
# output -0.244

# input Please supply the value of reported scaled log2 fold change for the item G22H
# output 0.331

# input Please supply the value of reported scaled log2 fold change for the item R175L
# output 0.518

# input Please supply the value of reported scaled log2 fold change for the item A15W
# output 0.0842

# input Please supply the value of reported scaled log2 fold change for the item D179H
# output 0.224

# input Please supply the value of reported scaled log2 fold change for the item V69N
# output 1.01

# input Please supply the value of reported scaled log2 fold change for the item S177K
# output 0.281

# input Please supply the value of reported scaled log2 fold change for the item A47V
# output 0.764

# input Please supply the value of reported scaled log2 fold change for the item V92R
# output 1.1

# input Please supply the value of reported scaled log2 fold change for the item S63Q
# output -0.105

# input Please supply the value of reported scaled log2 fold change for the item A4L
# output -0.0228

# input Please supply the value of reported scaled log2 fold change for the item V94I
# output -0.52

# input Please supply the value of reported scaled log2 fold change for the item S61F
# output -0.102

# input Please supply the value of reported scaled log2 fold change for the item S113F
# output 0.0249

# input Please supply the value of reported scaled log2 fold change for the item L17Q
# output -0.0277

# input Please supply the value of reported scaled log2 fold change for the item G151L
# output 1

# input Please supply the value of reported scaled log2 fold change for the item I130H
# output 0.0428

# input Please supply the value of reported scaled log2 fold change for the item E134L
# output 1.1

# input Please supply the value of reported scaled log2 fold change for the item D87R
# output -0.147

# input Please supply the value of reported scaled log2 fold change for the item S148E
# output 0.489

# input Please supply the value of reported scaled log2 fold change for the item D146T
# output 0.301

# input Please supply the value of reported scaled log2 fold change for the item E133W
# output -1.03

# input Please supply the value of reported scaled log2 fold change for the item D139K
# output 0.896

# input Please supply the value of reported scaled log2 fold change for the item L38I
# output -0.615

# input Please supply the value of reported scaled log2 fold change for the item G19I
# output 0.0203

# input Please supply the value of reported scaled log2 fold change for the item A172Y
# output 0.17

# input Please supply the value of reported scaled log2 fold change for the item E107T
# output -0.333

# input Please supply the value of reported scaled log2 fold change for the item M163H
# output 0.707

# input Please supply the value of reported scaled log2 fold change for the item A174S
# output -0.111

# input Please supply the value of reported scaled log2 fold change for the item G5M
# output 0.245

# input Please supply the value of reported scaled log2 fold change for the item S62L
# output 0.0177

# input Please supply the value of reported scaled log2 fold change for the item S30N
# output 0.26

# input Please supply the value of reported scaled log2 fold change for the item M160C
# output -0.675

# input Please supply the value of reported scaled log2 fold change for the item G143W
# output -0.202

# input Please supply the value of reported scaled log2 fold change for the item A2H
# output 0.1

# input Please supply the value of reported scaled log2 fold change for the item G6P
# output 0.13

# input Please supply the value of reported scaled log2 fold change for the item Q176K
# output 0.426

# input Please supply the value of reported scaled log2 fold change for the item W24E
# output 0.458

# input Please supply the value of reported scaled log2 fold change for the item I118P
# output 1.16

# input Please supply the value of reported scaled log2 fold change for the item N96L
# output 0.0905

# input Please supply the value of reported scaled log2 fold change for the item R149V
# output 0.231

# input Please supply the value of reported scaled log2 fold change for the item V69F
# output -0.809

# input Please supply the value of reported scaled log2 fold change for the item T131H
# output -0.186

# input Please supply the value of reported scaled log2 fold change for the item L17M
# output 0.05

# input Please supply the value of reported scaled log2 fold change for the item A57H
# output 0.158

# input Please supply the value of reported scaled log2 fold change for the item D99N
# output -0.0926
